Here the recorded pIC50 is given for each entry.
Molecular target: cAMP-dependent protein kinase catalytic subunit alpha (Homo sapiens)
Assay: Inhibitory concentration against recombinant human cAMP-dependent Protein kinase A
Conceptually, pIC50 converts a concentration in mol/L into minus its log10.

Entry O=C(N[C@@H]1COCCC[C@H]1OC(=O)c1cc(O)c(C(=O)c2c(O)cccc2C(=O)O)c(O)c1)c1ccc(O)cc1 : reported pIC50 = ? 6.35

Same read-out for NC[C@H]1C[C@@H](NC(=O)c2ccc(O)cc2)[C@H](OC(=O)c2cc(O)c(C(=O)c3c(O)cccc3C(=O)O)c(O)c2)C1 ? 6.77

Lookup CNC(=O)N1C[C@@H](NC(=O)c2ccc(O)cc2)[C@H](OC(=O)c2cc(O)c(C(=O)c3c(O)cccc3C(=O)O)c(O)c2)C1 5.52

# iterate: O=C(N[C@@H]1CS(=O)(=O)CCC[C@H]1OC(=O)c1cc(O)c(C(=O)c2c(O)cccc2C(=O)O)c(O)c1)c1ccc(O)cc1 4.42

Proceed to O=C(N[C@@H]1C[C@@H](CO)C[C@H]1OC(=O)c1cc(O)c(C(=O)c2c(O)cccc2C(=O)O)c(O)c1)c1ccc(O)cc1 6.66

Entry to check: CC1(C)C2CCC1(C)[C@@H](OC(=O)c1cc(O)c(C(=O)c3c(O)cccc3C(=O)O)c(O)c1)[C@@H]2NC(=O)c1ccc(O)cc1 (some centres undefined) 4.59

What about this molecule? O=C(N[C@@H]1CC(O)C[C@H]1OC(=O)c1cc(O)c(C(=O)c2c(O)cccc2C(=O)O)c(O)c1)c1ccc(O)cc1 (some centres undefined) 6.89

And then O=C(N[C@@H]1C[C@H](CO)C[C@H]1OC(=O)c1cc(O)c(C(=O)c2c(O)cccc2C(=O)O)c(O)c1)c1ccc(O)cc1 , what is it? 6.64

Now the same for O=C(N[C@@H]1CSCCC[C@H]1OC(=O)c1cc(O)c(C(=O)c2c(O)cccc2C(=O)O)c(O)c1)c1ccc(O)cc1 5.12

Note, next up: O=C(N[C@@H]1C[C@@H](O)C[C@H]1OC(=O)c1cc(O)c(C(=O)c2c(O)cccc2C(=O)O)c(O)c1)c1ccc(O)cc1 6.60

Try this molecule next: O=C(N[C@@H]1C2CC(C3CCCC32)[C@H]1OC(=O)c1cc(O)c(C(=O)c2c(O)cccc2C(=O)O)c(O)c1)c1ccc(O)cc1 (some centres undefined) 4.49

How about this molecule: N[C@@H]1C[C@@H](NC(=O)c2ccc(O)cc2)[C@H](OC(=O)c2cc(O)c(C(=O)c3c(O)cccc3C(=O)O)c(O)c2)C1 7.30

// next record O=C(N[C@@H]1CNC[C@H]1OC(=O)c1cc(O)c(C(=O)c2c(O)cccc2C(=O)O)c(O)c1)c1ccc(O)cc1 7.15
